system: SR leukemia; assay: NCI-60 one-dose screen, 48 h; details: 10 µM
The panel holds about 83,000 compounds, 20% with a hit somewhere; the sample as a whole holds those more often. Calls of active or inactive are those of the source. The calls were made as follows: active = growth percent below 10; inactive = the rest.
Classes used: active, inactive

compound	assigned-class
CCOC(=O)N/N=C\C(C)=N\NC(=O)OCC	inactive
CCOC(=O)N1C/C(=C/c2ccc(OC)cc2)C(=O)/C(=C/c2ccc(OC)cc2)C1	active
N=C(N)c1ccc(-c2ccc(-c3cccs3)s2)s1	active
COc1ccc(-c2cc(/C=C/C(=O)c3cc(OC)c(OC)c(OC)c3)[nH]n2)cc1OC	active
Cc1cccc2c1O/C(=C\c1ccc([N+](=O)[O-])o1)C2=O	active
CCCCCCCCCCCCCCCCN(C(C)c1ccccc1)S(=O)(=O)c1ccc(OC)c(N)c1 (configuration not stated)	inactive
Nc1ccn(C2CC(O)C(CO)O2)c(=O)n1 (configuration not stated)	inactive
COc1cc(Cl)cc(-c2nn(-c3cccc(NC(=O)Nc4ccc(Cl)c(C(F)(F)F)c4)c3)cc2-c2ccncc2)c1	active
COc1cc(Cl)cc(-c2nn(-c3cccc(NC(=O)Nc4ccc(Cl)c(Cl)c4)c3)cc2-c2ccncc2)c1	active
Clc1ccc(-c2cn(-c3ccccc3)c(-c3ccccc3)n2)c(Cl)c1	active
Cc1ccc(-c2n[nH]c(=O)c3noc(-c4ccc(C)cc4)c23)cc1	inactive
O=C1NC(=O)c2ncccc21	inactive
COc1cc(-c2cc(C(=O)N3CCN(C(=O)c4ccccc4NCc4cccs4)CC3)nc3cc(-c4ccccc4)nn23)cc(OC)c1OC	inactive
Nc1ncnc2[nH]c(=O)[nH]c12	inactive
O=C(Nc1nc2ccccc2s1)Nc1ccc([N+](=O)[O-])cc1Cl	inactive
Cn1c([N+](=O)[O-])cnc1/C=C1\Oc2ccccc2C1=O	active
O=C(Nc1cccc(Br)c1)c1cc(=O)[nH]c2ccccc12	inactive
Nc1nccc(Nc2ccccc2)n1	inactive
COc1ccc2c(c1)N(CCO)C1=C(C(=O)OC1)C2c1ccccc1 (configuration not stated)	inactive
COc1cc(-c2nnc(-c3c(-c4ccc(F)cc4)nc4ccccn34)o2)cc(OC)c1OC	inactive
FC(F)(F)c1ccc(-c2cnc(Cl)nc2N2CCC3(CC2)OCCO3)cc1	inactive
Oc1[nH]c2ccc(Cl)cc2c1/C=c1/ccc2c(c1)N=C(c1cccs1)N=2	inactive
